Conditions: in ethyl formate, 296.15 K
measured_parameter: solubility (mole fraction)
Numbers only.

Return solubility (mole fraction) for the following compound: CC(=O)C1C(=O)C=C(C)OC1=O (stereo unspecified)
0.067

====

Conditions: in 2-butanone, 308.05 K
measured_parameter: solubility (mole fraction)
Numbers only.

Return solubility (mole fraction) (reported value) for this molecule: CC(=O)C1C(=O)C=C(C)OC1=O (stereo unspecified)
0.0285

====

Details: in n-pentanol, 312.15 K
measured_parameter: solubility (mole fraction)
One number for each entry.

Return the recorded solubility (mole fraction) value; entry: CC(=O)C1C(=O)C=C(C)OC1=O (stereo unspecified)
0.0233

====

Settings: in isopropanol, 315.65 K
measured_parameter: solubility (mole fraction)
Give bare numbers.

Check the records and state solubility (mole fraction) for CC(=O)C1C(=O)C=C(C)OC1=O (stereo unspecified)
0.0202
